- Setup conditions: buffer; pH 7.4; 200.0 µM
Documented solubility kinetic across a set of compounds

Would you please look over these solved cases?
Requested field: solubility kinetic. Item: CC(NC(=O)c1ccccc1Cl)C(=O)OCc1cn2cc(Cl)ccc2n1 (stereo not drawn) > 58.8 µg/mL

Same again, this time with Cc1cc(N(C)C)nc(Nc2ccccc2)n1 > 34.2 µg/mL

Same again, this time with Cc1ccc(S(=O)(=O)c2nc(-c3cccs3)oc2N2CCC(C(N)=O)CC2)cc1 > 64.7 µg/mL

Same again, this time with CSc1cccc(-n2ccc(=O)c(C)c2C)c1 > 36.8 µg/mL

Continuing:
Requested field: solubility kinetic. Item: COc1ccc(/C=C2\Oc3cc(OC(=O)N4CCOCC4)ccc3C2=O)cc1 < 0.8 µg/mL

Same again, this time with CCNC(=O)N1CCC(c2nc3ccccc3s2)CC1 > 43.4 µg/mL

Same again, this time with Cc1ccc(S(=O)(=O)NC2CC2)s1 > 32.6 µg/mL

Same again, this time with Cc1cc(=O)c(C(=O)O)nn1-c1ccccc1C(F)(F)F > 44.7 µg/mL

Same again, this time with CCOC(=O)c1cc(C#N)c(Nc2ccc(C)cc2)nc1C(F)(F)F < 0.2 µg/mL

Same again, this time with CCc1nc2cccnc2n1-c1ccc(CC(=O)NC(C)CC)cc1 (stereo not drawn) > 50.5 µg/mL
